The reported numbers originate from paper PMC12779811.

# Experimental System: human acetylcholinesterase (hAChE) (Homo sapiens)
# Sequence (P22303 32-614): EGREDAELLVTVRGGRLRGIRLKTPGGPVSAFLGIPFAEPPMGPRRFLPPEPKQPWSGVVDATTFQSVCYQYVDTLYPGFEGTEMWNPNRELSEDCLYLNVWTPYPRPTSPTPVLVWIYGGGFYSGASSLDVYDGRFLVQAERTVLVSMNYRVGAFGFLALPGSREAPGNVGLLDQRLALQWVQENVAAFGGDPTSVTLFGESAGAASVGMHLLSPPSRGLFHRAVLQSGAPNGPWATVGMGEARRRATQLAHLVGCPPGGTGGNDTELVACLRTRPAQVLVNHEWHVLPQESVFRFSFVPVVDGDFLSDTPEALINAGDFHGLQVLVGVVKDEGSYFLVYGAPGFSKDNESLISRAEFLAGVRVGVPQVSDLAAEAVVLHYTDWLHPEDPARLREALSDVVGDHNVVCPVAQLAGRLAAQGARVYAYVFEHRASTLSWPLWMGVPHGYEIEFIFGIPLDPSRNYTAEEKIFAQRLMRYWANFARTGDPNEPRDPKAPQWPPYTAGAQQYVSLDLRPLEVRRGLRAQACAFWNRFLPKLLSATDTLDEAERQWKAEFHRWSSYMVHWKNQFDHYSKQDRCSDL
# Measurement Description: biochemical
# Study Conditions: triplicate; galantamine positive control; IC50 exceeding 40 μM considered inactive; read-out: hAChE inhibitory activity IC50 ± SD
Overview of recorded IC50 for various compounds

Provide one value: measured IC50 of `CC(C)C[C@H]1C2=C(O[C@]3(C)[C@H]1C[C@]1(C(C)C)C[C@@H]13)C(C)(C)C(=O)C(C)(C)C2=O`
> 40000 nM

Dear colleague, please send me the reported IC50 for CC(C)C(=O)c1c(O)cc2c(c1O)C(C(C)C)C1=C(O2)C(C)(C)C(=O)C(C)(C)C1=O (stereo not drawn) when you can.
1360 nM

Using the record for CC1(C)C(=O)C2=C(OC3(O)C(=C2)C(=O)C(C)(C)C(=O)C3(C)C)C(C)(C)C1=O (stereo not drawn) , state its measured IC50.
> 40000 nM

Supply reported IC50 belonging to this compound: CCC(C)C(=O)c1c(O)cc2c(c1O)C(C(C)C)C1=C(O2)C(C)(C)C(=O)C(C)(C)C1=O (stereo not drawn)
2860 nM

Quote IC50 reported for CC(C)CC(=O)c1c(O)cc2c(c1O)C(CC(C)C)C1=C(O2)C(C)(C)C(=O)C(C)(C)C1=O (stereo not drawn) please.
1520 nM

Identify IC50 associated with the compound CCC(C)C(=O)c1c(O)cc(O)c2c1OC1=C(C(=O)C(C)(C)C(=O)C1(C)C)C2C(C)CC (stereo not drawn) [phloroglucinol 7, rhodotomentodimer M]
2410 nM
